# assaySystem: HLA-B*15:01
# assay: IEDB peptide-MHC binding, purified MHC/direct/fluorescence; filed as Kd, often an IC50 or EC50 that approximates it; bounds were set here for any values at or beyond the usual limits of such assays
# measurementSetup: source organism: Escherichia coli O157:H7
experimentalEndpoint: Kd

1) LPPERRQPF = ≥ 20 µM

Give Kd (HLA-B*15:01) of the following sequence: RRNDVARIF
≥ 20 µM

----------
# assaySystem: HLA-B*51:01
# assay: IEDB peptide-MHC binding, purified MHC/competitive/fluorescence; filed as Kd, often an IC50 or EC50 that approximates it; bounds were set here for any values at or beyond the usual limits of such assays
# measurementSetup: source organism: Burkholderia pseudomallei K96243
pKd: −log10 of the molar value.
experimentalEndpoint: pKd

Give pKd (HLA-B*51:01) of the following sequence: DELWRGLLA
≤ 4.70

----------
# assaySystem: HLA-B*27:03
# assay: IEDB peptide-MHC binding, purified MHC/competitive/fluorescence; filed as Kd, often an IC50 or EC50 that approximates it; bounds were set here for any values at or beyond the usual limits of such assays
# measurementSetup: source organism: Campylobacter jejuni subsp. jejuni NCTC 11168 = ATCC 700819
pKd: −log10 of the molar value.
experimentalEndpoint: pKd

So what's the measured pKd for this one? KGMKIQHFK
≤ 4.70

----------
# assaySystem: HLA-B*18:01
# assay: IEDB peptide-MHC binding, purified MHC/direct/fluorescence; filed as Kd, often an IC50 or EC50 that approximates it; bounds were set here for any values at or beyond the usual limits of such assays
# measurementSetup: source organism: Brucella abortus
experimentalEndpoint: Kd

So what's the measured Kd for this one? LTDAFHGYH
≥ 20 µM

----------
# assaySystem: HLA-B*40:01
# assay: IEDB peptide-MHC binding, purified MHC/direct/fluorescence; filed as Kd, often an IC50 or EC50 that approximates it; bounds were set here for any values at or beyond the usual limits of such assays
# measurementSetup: source organism: Entamoeba histolytica
pKd: −log10 of the molar value.
experimentalEndpoint: pKd

Give pKd (HLA-B*40:01) of the following sequence: DFGYATMAK
≤ 4.70

----------
# assaySystem: HLA-A*03:01
# assay: IEDB peptide-MHC binding, purified MHC/direct/fluorescence; filed as Kd, often an IC50 or EC50 that approximates it; bounds were set here for any values at or beyond the usual limits of such assays
# measurementSetup: source organism: Neisseria gonorrhoeae
pKd: −log10 of the molar value.
experimentalEndpoint: pKd

So what's the measured pKd for this one? GSDKQVVGQ
≤ 4.70

----------
# assaySystem: HLA-A*02:01
# assay: IEDB peptide-MHC binding, purified MHC/competitive/fluorescence; filed as Kd, often an IC50 or EC50 that approximates it; bounds were set here for any values at or beyond the usual limits of such assays
# measurementSetup: source organism: Bacillus anthracis str. 'Ames Ancestor'
experimentalEndpoint: Kd

Give Kd (HLA-A*02:01) of the following sequence: MTQNISNDK
≥ 20 µM

----------
# assaySystem: HLA-B*27:20
# assay: IEDB peptide-MHC binding, purified MHC/competitive/fluorescence; filed as Kd, often an IC50 or EC50 that approximates it; bounds were set here for any values at or beyond the usual limits of such assays
# measurementSetup: source organism: Burkholderia mallei SAVP1
experimentalEndpoint: Kd (nM)
Numeric only. Scale: nM

So what's the measured Kd for this one? YARRYFYPL
24.4

----------
# assaySystem: HLA-A*02:01
# assay: IEDB peptide-MHC binding, purified MHC/competitive/fluorescence; bounds were set here for any values at or beyond the usual limits of such assays
# measurementSetup: source organism: Vaccinia virus
experimentalEndpoint: IC50 (nM)
Numeric only. Scale: nM

Give IC50 (HLA-A*02:01) of the following sequence: YMDDRDINP
27100

How about FANPLSNPF ?
2530

How about SLYPNVCIF ?
1880

----------
# assaySystem: HLA-B*08:01
# assay: IEDB peptide-MHC binding, purified MHC/direct/fluorescence; filed as Kd, often an IC50 or EC50 that approximates it; bounds were set here for any values at or beyond the usual limits of such assays
# measurementSetup: source organism: Neisseria gonorrhoeae
pKd: −log10 of the molar value.
experimentalEndpoint: pKd

So what's the measured pKd for this one? GSDKQVVGQ
≤ 4.70

----------
# assaySystem: HLA-B*44:02
# assay: IEDB peptide-MHC binding, purified MHC/direct/fluorescence; filed as Kd, often an IC50 or EC50 that approximates it; bounds were set here for any values at or beyond the usual limits of such assays
# measurementSetup: source organism: Neisseria gonorrhoeae
pKd: −log10 of the molar value.
experimentalEndpoint: pKd

So what's the measured pKd for this one? GSDKQVVGQ
≤ 4.70

----------
Measured pKd of individual entries
# assaySystem: HLA-B*45:01
# assay: IEDB peptide-MHC binding, purified MHC/competitive/radioactivity; filed as Kd, often an IC50 or EC50 that approximates it; bounds were set here for any values at or beyond the usual limits of such assays
# measurementSetup: source organism: Mammarenavirus machupoense
pKd: −log10 of the molar value.

1) EEPAALLPL = ≤ 4.63

Attention now turns to another entry.
Give pKd (HLA-B*45:01) of the following sequence: PDVGVLFGL
≤ 4.60

----------
# assaySystem: HLA-B*40:01
# assay: IEDB peptide-MHC binding, purified MHC/direct/fluorescence; filed as Kd, often an IC50 or EC50 that approximates it; bounds were set here for any values at or beyond the usual limits of such assays
# measurementSetup: source organism: Vibrio cholerae
pKd: −log10 of the molar value.
experimentalEndpoint: pKd

The cases that follow already have their pKd on record.
1. ALYWALMES = ≤ 4.70
2. WAGIWGGKL = ≤ 4.70

Attention now turns to another entry.
So what's the measured pKd for this one? VVYKEAKIK
≤ 4.70

----------
# assaySystem: HLA-A*11:01
# assay: IEDB peptide-MHC binding, purified MHC/competitive/radioactivity; filed as Kd, often an IC50 or EC50 that approximates it; bounds were set here for any values at or beyond the usual limits of such assays
# measurementSetup: source organism: Vaccinia virus WR
experimentalEndpoint: pKd
pKd (log units): -log10 of the concentration in mol/L.

The cases that follow already have their pKd on record.
1. VALYRRIQR = 5.28
2. VALSSLVSK = 7.82
3. KVVDTFISY = 8.30
4. VTLFYCDER = 6.56
5. IMFMLIFNVK = 6.70
6. SSLVKNVNK = 7.57
7. ISDYSAEVER = 5.42

Attention now turns to another entry.
So what's the measured pKd for this one? VLPHLCLDYK
6.71

----------
# assaySystem: HLA-B*57:01
# assay: IEDB peptide-MHC binding, purified MHC/competitive/fluorescence; filed as Kd, often an IC50 or EC50 that approximates it; bounds were set here for any values at or beyond the usual limits of such assays
# measurementSetup: source organism: Zaire ebolavirus
pKd: −log10 of the molar value.
Measured pKd of individual entries

1. VLYHRYNLV = ≤ 4.70

Attention now turns to another entry.
So what's the measured pKd for this one? LTDRELLLL
≤ 4.70

----------
# assaySystem: HLA-A*03:01
# assay: IEDB peptide-MHC binding, purified MHC/direct/fluorescence; filed as Kd, often an IC50 or EC50 that approximates it; bounds were set here for any values at or beyond the usual limits of such assays
# measurementSetup: source organism: Escherichia coli O157:H7
experimentalEndpoint: Kd

1. RRNDVARIF = ≥ 20 µM

So what's the measured Kd for this one? LPPERRQPF
≥ 20 µM

----------
# assaySystem: HLA-A*02:01
# assay: IEDB peptide-MHC binding, purified MHC/competitive/fluorescence; filed as Kd, often an IC50 or EC50 that approximates it; bounds were set here for any values at or beyond the usual limits of such assays
# measurementSetup: source organism: Orthonairovirus haemorrhagiae
experimentalEndpoint: Kd

So what's the measured Kd for this one? MIRRRNQIL
≥ 20 µM

----------
# assaySystem: HLA-B*57:01
# assay: IEDB peptide-MHC binding, purified MHC/competitive/fluorescence; filed as Kd, often an IC50 or EC50 that approximates it; bounds were set here for any values at or beyond the usual limits of such assays
# measurementSetup: source organism: Human herpesvirus 5 strain Towne
experimentalEndpoint: Kd

So what's the measured Kd for this one? LPLKMLNIPSINVH
≥ 20 µM

----------
# assaySystem: HLA-B*18:01
# assay: IEDB peptide-MHC binding, purified MHC/competitive/fluorescence; filed as Kd, often an IC50 or EC50 that approximates it; bounds were set here for any values at or beyond the usual limits of such assays
# measurementSetup: source organism: Homo sapiens
experimentalEndpoint: Kd

1) VSDFRKEFY = ≥ 20 µM

So what's the measured Kd for this one? VLIRRCHYL
≥ 20 µM

----------
# assaySystem: HLA-A*03:01
# assay: IEDB peptide-MHC binding, purified MHC/competitive/radioactivity; filed as Kd, often an IC50 or EC50 that approximates it; bounds were set here for any values at or beyond the usual limits of such assays
# measurementSetup: source organism: Mammarenavirus guanaritoense
experimentalEndpoint: Kd

1) CCNWLDRCR = ≥ 78 µM

Attention now turns to another entry.
So what's the measured Kd for this one? FFTTSLFLH
≥ 55.7 µM

Sourced from the Immune Epitope Database (IEDB)
